- assay-target: LSD1/CoREST complex (Homo sapiens)
- experimental-details: Inhibition of human LSD1/CoREST using histone H3 peptide as substrate by fluorescence polarization assay
- Type: protein-complex assay
experimental-endpoint: Ki (nM)

test_smiles=COc1cc2nc(NCCCN(C)C)nc(NC3CCN(Cc4ccc5ccccc5c4)CC3)c2cc1OC experimental_endpoint=Ki unit_of_measure=nM assay_value=156
test_smiles=COc1cc2nc(NCCCN(C)C)nc(NC3CCN(Cc4cccc5ccccc45)CC3)c2cc1OC experimental_endpoint=Ki unit_of_measure=nM assay_value=212
test_smiles=COc1cc2nc(NCCCN(C)C)nc(NC3CCN(Cc4ccc(-c5ccccc5)cc4)CC3)c2cc1OC experimental_endpoint=Ki unit_of_measure=nM assay_value=146
test_smiles=COc1cc2nc(NCCCN3CCCCC3)nc(NC3CCN(Cc4ccccc4)CC3)c2cc1OC experimental_endpoint=Ki unit_of_measure=nM assay_value=170
test_smiles=COc1cc2nc(NCCCN(C)C)nc(N(C)C3CCN(Cc4ccccc4)CC3)c2cc1OC experimental_endpoint=Ki unit_of_measure=nM assay_value=569
test_smiles=COc1cc2nc(NCCCN3CCCC3)nc(NC3CCN(Cc4ccccc4)CC3)c2cc1OC experimental_endpoint=Ki unit_of_measure=nM assay_value=183
